The reported measurements were obtained from the NIST ThermoML archive (doi:10.1016/j.jct.2012.10.028).

# METHOD: refractive index (Na D-line) (dimensionless)
# MEASUREMENT_CONDITIONS: 298.2 K; 101.33 kPa; Liquid; Standard Abbe refractometry
OBSERVED_PROPERTY: refractive index

CCCCC(CC)CO (stereo not given); 1.4293
O; 1.3325
CCCCCCCCO; 1.427
O=C1CCCCC1; 1.4503
CC(=O)OCC(C)C [2-methylpropyl ethanoate]; 1.3878
